src = ChEMBL document CHEMBL1629532

# target under test: 3-phosphoinositide-dependent protein kinase 1 (Homo sapiens, UniProt O15530)
# Sequence (O15530 whole entry): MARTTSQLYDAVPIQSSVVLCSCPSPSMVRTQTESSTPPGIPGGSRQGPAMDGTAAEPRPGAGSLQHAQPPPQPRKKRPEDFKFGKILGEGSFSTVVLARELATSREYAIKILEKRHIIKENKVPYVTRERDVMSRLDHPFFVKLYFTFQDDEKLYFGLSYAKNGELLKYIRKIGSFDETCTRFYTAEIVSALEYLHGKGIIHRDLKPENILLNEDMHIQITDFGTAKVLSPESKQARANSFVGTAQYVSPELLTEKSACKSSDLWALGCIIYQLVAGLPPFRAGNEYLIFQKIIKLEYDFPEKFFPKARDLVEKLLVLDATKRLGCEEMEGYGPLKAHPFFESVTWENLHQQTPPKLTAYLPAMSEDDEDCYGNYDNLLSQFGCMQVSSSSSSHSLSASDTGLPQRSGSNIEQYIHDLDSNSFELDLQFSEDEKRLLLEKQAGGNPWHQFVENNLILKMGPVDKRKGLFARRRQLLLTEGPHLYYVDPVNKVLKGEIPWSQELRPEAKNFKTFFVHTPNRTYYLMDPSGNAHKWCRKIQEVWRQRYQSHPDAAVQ
quantity name: IC50

Below are worked cases with known answers.
> print(dat)
                                smiles.data  observed
1  FC(F)(F)c1cc(C#Cc2n[nH]c3ccccc23)cc(C(F)(F)F)c1  > 100 µM
2         Fc1cc(F)cc(C#Cc2n[nH]c3ccccc23)c1  > 100 µM
3              C(#Cc1n[nH]c2ccccc12)c1ccsc1  > 100 µM
4             C(#Cc1n[nH]c2ncccc12)c1ccncc1   > 50 µM
5                 CN(C)CC#Cc1n[nH]c2ccccc12  > 100 µM
6             C(#Cc1n[nH]c2ccccc12)c1ccncc1   3.87 µM
7             C(#Cc1n[nH]c2ccccc12)c1ccccc1   > 50 µM
8                C(#CC1CC1)c1n[nH]c2ccccc12  > 100 µM

# input for lookup
I have this compound here, `N#Cc1ccc(C#Cc2n[nH]c3ccccc23)cc1` , and I need its recorded IC50.
> 100 µM
